- Test system: Saccharomyces cerevisiae;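 also: PSI is a weighted mean of sequencing reads over stability bins, variants kept only with over 10 reads, mCherry proximal and sfGFP distal, peptide attached via GGGS linker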
- test details: protein stability index of tFT-peptide fusion (C-terminal peptide) (PSI (0-1 scale)); higher = more stable (slower turnover)
- experimental conditions: genetic background: das1 deletion; temperature: 37 C
Ranges used to classify protein stability index: zone 1 (below 0.4), zone 2 (0.4 to below 0.6), zone 3 (0.6 or more)

Example entries and their recorded answers appear below.
| record sequence | target or test system | group label |
| --- | --- | --- |
| AYCGGRNKCTTE | Saccharomyces cerevisiae | zone 3 |
| GLLAEPALLLLS | Saccharomyces cerevisiae | zone 3 |
| CGQIAFLGIAVK | Saccharomyces cerevisiae | zone 2 |
| VRTFAVSCLCVC | Saccharomyces cerevisiae | zone 1 |
| LFVVFVLLTFFV | Saccharomyces cerevisiae | zone 1 |

Categorize the following entry: VLRACCDWGFLV
zone 3

Field: class (protein stability index) — entry: MALAVRVVLCGA
zone 1

Bin? AFRSPLLMLLVL
zone 2

Which protein stability index band matches RAVLRFVMVWVL ?
zone 2

Each sequence maps to one class by protein stability index. Which class for LSPPLRHRLTPP ?
zone 3

State the band of MSRALSVLVVVA
zone 1

Band for the recorded protein stability index of AMRTIFFPAFVS ?
zone 3

Please classify: ASLVGGVLLVVV
zone 2

Quick check: band for YAFSTCTILIRF
zone 1

Hello team, could you let me know which band the following sequence falls into: GLYFFVVRIFKV
zone 2

Classify this sequence: HFLLAFMLCFGQ
zone 2

Category of KTDVYPVSFFTC :
zone 3
